# System Tested: T1, EsCas13d, nuclease-dead (Eubacterium siraeum, UniProt B0MS50, R295A;H300A;R849A;H854A)
# T1 sequence: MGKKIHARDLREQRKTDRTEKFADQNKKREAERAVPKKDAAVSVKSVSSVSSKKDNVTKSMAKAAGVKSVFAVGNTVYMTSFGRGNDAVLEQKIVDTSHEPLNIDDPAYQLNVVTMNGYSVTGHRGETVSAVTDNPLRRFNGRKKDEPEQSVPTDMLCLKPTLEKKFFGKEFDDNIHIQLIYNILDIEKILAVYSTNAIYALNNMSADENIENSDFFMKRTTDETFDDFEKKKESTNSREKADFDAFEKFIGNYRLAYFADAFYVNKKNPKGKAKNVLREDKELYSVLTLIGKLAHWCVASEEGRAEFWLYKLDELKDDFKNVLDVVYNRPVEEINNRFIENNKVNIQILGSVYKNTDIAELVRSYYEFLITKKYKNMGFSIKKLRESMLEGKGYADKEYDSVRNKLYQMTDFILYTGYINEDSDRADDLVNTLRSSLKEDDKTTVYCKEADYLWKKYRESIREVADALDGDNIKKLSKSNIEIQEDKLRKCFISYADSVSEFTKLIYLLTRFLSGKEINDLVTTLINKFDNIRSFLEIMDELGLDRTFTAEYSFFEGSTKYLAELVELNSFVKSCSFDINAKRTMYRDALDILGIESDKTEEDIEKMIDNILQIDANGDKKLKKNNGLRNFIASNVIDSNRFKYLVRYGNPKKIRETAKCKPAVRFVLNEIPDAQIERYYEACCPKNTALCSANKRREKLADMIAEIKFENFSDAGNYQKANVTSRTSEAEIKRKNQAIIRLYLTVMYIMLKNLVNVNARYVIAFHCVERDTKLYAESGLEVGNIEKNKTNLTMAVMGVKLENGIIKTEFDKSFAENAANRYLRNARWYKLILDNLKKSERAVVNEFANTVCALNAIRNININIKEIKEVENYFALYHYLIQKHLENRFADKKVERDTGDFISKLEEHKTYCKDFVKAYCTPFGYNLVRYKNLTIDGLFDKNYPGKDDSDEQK
# Test Description: crRNA (strand 1, pre-loaded); Mg2+; 40 mM Tris-HCl pH 7.5, 150 mM NaCl, 6 mM MgCl2, 1 mM DTT, 0.1% Tween-20, 0.2 mg/ml BSA; 25 C; 10 min per concentration, then washed
# Test Context: tags: His6-TwinStrep-SUMO cleaved; N-terminal SNAP kept (SNAP-Surface 488); label: 3' end held by stalled T7 RNA polymerase
Metric Name: Kd (µM)

# Binder, Metric Name, Reading Unit, Endpoint Result
data = [
    ("target 1 MT 5'PFS UAA 3'PFS AUG (mixed) RNA 1: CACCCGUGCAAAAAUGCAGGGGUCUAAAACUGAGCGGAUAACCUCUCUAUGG RNA 2: GGGAAUGGAUCCACAUCUACGAAUUCUAACCAUAGAGAGGUUAUCCGCUCAAUGAGAUCGGAAGAGCACACGU", "Kd", "µM", 0.0575),
    ("target 1 U8G,U11A (mixed) RNA 1: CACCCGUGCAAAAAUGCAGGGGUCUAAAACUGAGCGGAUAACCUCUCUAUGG RNA 2: GGGAAUGGAUCCACAUCUACGAAUUCGUACCAUAGAGAGGAUAGCCGCUCACCGAGAUCGGAAGAGCACACGU", "Kd", "µM", 0.0276),
    ("target 1 A9G,C22A (mixed) RNA 1: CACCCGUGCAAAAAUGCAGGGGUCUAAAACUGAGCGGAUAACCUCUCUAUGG RNA 2: GGGAAUGGAUCCACAUCUACGAAUUCGUAACAUAGAGAGGUUGUCCGCUCACCGAGAUCGGAAGAGCACACGU", "Kd", "µM", 0.0219),
    ("target 3 insG 3' of 6,insG 3' of 1 (mixed) RNA 1: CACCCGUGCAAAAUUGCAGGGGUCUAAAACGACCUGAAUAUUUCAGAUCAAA RNA 2: GGGAAUGGAUCCACAUCUACGAAUUCGUUUUUGAUCUGAAAUAUUCGAGGUCGUGCAGAUCGGAAGAGCACACGU", "Kd", "µM", 0.025),
]
